# Test Details: Antiproliferative activity against human KB7D cells incubated for 48 hrs by SRB assay
# Format: functional
Threshold check on GI50: strictly below 400 nM is Criterion met; on or above 400 nM is Criterion not met.

Lookup: Report whether reported GI50 is lower than 400 nM (strictly) for COc1cc([C@@H]2c3cc4c(cc3[C@@H](O[C@@H]3O[C@@H]5CO[C@@H](C)O[C@H]5[C@H](O)[C@H]3O)[C@H]3COC(=O)[C@H]23)OCO4)cc(OC)c1O [ETOPOSIDE]
Found: Criterion not met

Lookup: Report whether reported GI50 is lower than 400 nM (strictly) for `COc1ccc(S(=O)(=O)Nc2cccnc2Nc2ccc(O)cc2)cc1`
Found: Criterion not met

Lookup: Report whether reported GI50 is lower than 400 nM (strictly) for `Nc1ccccc1NC(=O)c1ccc(CNC(=O)OCc2cccnc2)cc1`
Found: Criterion not met

Lookup: Report whether reported GI50 is lower than 400 nM (strictly) for `COc1ccc(S(=O)(=O)Nc2ccccc2CCc2ccc(C(=O)Nc3ccccc3N)cc2)cc1`
Found: Criterion met

Lookup: Report whether reported GI50 is lower than 400 nM (strictly) for `COc1ccc(S(=O)(=O)Nc2ccccc2CCc2ccc(C(=O)Nc3cc(F)ccc3N)cc2)cc1`
Found: Criterion met

Lookup: Report whether reported GI50 is lower than 400 nM (strictly) for `COc1ccc(S(=O)(=O)Nc2ccccc2NCc2ccc(C(=O)Nc3ccccc3N)cc2)cc1`
Found: Criterion met

Lookup: Report whether reported GI50 is lower than 400 nM (strictly) for `COc1ccc(S(=O)(=O)Nc2ccccc2OCc2ccc(C(=O)Nc3ccccc3N)cc2)cc1`
Found: Criterion met
